Tested on: Staphylococcus aureus (ATCC 6538)
Test: Agar diffusion antibacterial screening (inhibition zone)
Format: cell-based
Details: ATCC6538, S. aureus, 1 mg/mL, Mueller–Hinton agar, read-out: Diameter of inhibition zone
readout-type: zone of inhibition at 1000 µg/mL (mm)

COc1ccc2c3c(ccc2c1)OC(N)=C(C#N)C3c1cc(OC)c(OC)c(OC)c1 (stereo not shown) [Compound 4p] :: 11
COc1ccc2c3c(ccc2c1)OC(N)=C(C#N)C3c1ccc(Cl)cc1Cl (stereo not shown) [Compound 4j] :: 0
COc1ccc2c3c(ccc2c1)OC(N)=C(C#N)C3c1ccc(Cl)cc1 (stereo not shown) [Compound 4d] :: 0
COc1ccc2c3c(ccc2c1)OC(N)=C(C#N)C3c1ccc(F)cc1 (stereo not shown) [Compound 4a] :: 0

---

Listing of entries alongside the reported melting point.
readout-type: melting point

COc1ccc2c3c(ccc2c1)OC(N)=C(C#N)C3c1ccccc1Cl (stereo not drawn) :: 265 to 266 °C
COc1ccc2c3c(ccc2c1)OC(N)=C(C#N)C3c1ccc(OC)c(OC)c1OC (stereo not drawn) :: 240 to 241 °C
COc1ccc2c3c(ccc2c1)OC(N)=C(C#N)C3c1cc(OC)c(OC)c(OC)c1 (stereo not drawn) :: 258 to 259 °C
COc1ccc2c3c(ccc2c1)OC(N)=C(C#N)C3c1cccc(Cl)c1Cl (stereo not drawn) :: 256 to 257 °C
COc1ccc2c3c(ccc2c1)OC(N)=C(C#N)C3c1cc(Cl)ccc1Cl (stereo not drawn) :: 270 to 271 °C
COc1ccc2c3c(ccc2c1)OC(N)=C(C#N)C3c1c(Cl)cccc1Cl (stereo not drawn) :: 313 to 314 °C
COc1ccc2c3c(ccc2c1)OC(N)=C(C#N)C3c1c(F)cccc1F (stereo not drawn) :: 295 to 296 °C
COc1ccc2c3c(ccc2c1)OC(N)=C(C#N)C3c1cc(Cl)cc(Cl)c1Cl (stereo not drawn) :: 259 to 260 °C
COc1ccc2c3c(ccc2c1)OC(N)=C(C#N)C3c1ccc(I)cc1 (stereo not drawn) :: 227 to 228 °C
COc1ccc2c3c(ccc2c1)OC(N)=C(C#N)C3c1ccc(Cl)cc1 (stereo not drawn) :: 246 to 247 °C
COc1ccc2c3c(ccc2c1)OC(N)=C(C#N)C3c1cc(Br)cc(Br)c1OC (stereo not drawn) :: 241 to 242 °C
COc1ccc2c3c(ccc2c1)OC(N)=C(C#N)C3c1ccc(Cl)cc1Cl (stereo not drawn) :: 285 to 286 °C
COc1ccc2c3c(ccc2c1)OC(N)=C(C#N)C3c1ccc(Cl)c(Cl)c1 (stereo not drawn) :: 241 to 242 °C
COc1ccc2c3c(ccc2c1)OC(N)=C(C#N)C3c1ccc(F)cc1F (stereo not drawn) :: 300 to 301 °C
N#CC(C#N)=Cc1ccc(Cl)cc1 :: 162 to 163 °C
COc1ccc2c3c(ccc2c1)OC(N)=C(C#N)C3c1ccc(Br)cc1 (stereo not drawn) :: 261 to 262 °C
COc1ccc2c3c(ccc2c1)OC(N)=C(C#N)C3c1ccc(F)cc1 (stereo not drawn) :: 255 to 256 °C
COc1ccc2c3c(ccc2c1)OC(N)=C(C#N)C3c1cccc(Cl)c1 (stereo not drawn) :: 216 to 217 °C

---

System: HCT-116 (human colon cancer)
Assay: MTT cytotoxicity assay
Assay type: cell-based
Details: MTT, 24-h incubation, mean ± standard error, read-out: IC50 Cancerotoxicity HCT-116
Listing of entries alongside the reported IC50.
readout-type: IC50 (µM)

COc1ccc2c3c(ccc2c1)OC(N)=C(C#N)C3c1ccc(Cl)cc1Cl (centres unmarked) [Compound 4j] :: 5.8
COc1ccc2c3c(ccc2c1)OC(N)=C(C#N)C3c1ccc(I)cc1 (centres unmarked) [Compound 4f] :: 27.8
COc1ccc2c3c(ccc2c1)OC(N)=C(C#N)C3c1ccccc1Cl (centres unmarked) [Compound 4b] :: 8.6
COc1ccc2c3c(ccc2c1)OC(N)=C(C#N)C3c1ccc(F)cc1F (centres unmarked) [Compound 4g] :: 6
COc1ccc2c3c(ccc2c1)OC(N)=C(C#N)C3c1cc(Cl)ccc1Cl (centres unmarked) [Compound 4k] :: 2.5
COc1ccc2c3c(ccc2c1)OC(N)=C(C#N)C3c1ccc(Cl)c(Cl)c1 (centres unmarked) [Compound 4m] :: 2.3
COc1ccc2c3c(ccc2c1)OC(N)=C(C#N)C3c1cc(Cl)cc(Cl)c1Cl (centres unmarked) [Compound 4q] :: 107
COc1ccc2c3c(ccc2c1)OC(N)=C(C#N)C3c1c(Cl)cccc1Cl (centres unmarked) [Compound 4l] :: 21.3
COc1ccc2c3c(ccc2c1)OC(N)=C(C#N)C3c1cc(Br)cc(Br)c1OC (centres unmarked) [Compound 4n] :: 1.2
COc1ccc2c3c(ccc2c1)OC(N)=C(C#N)C3c1c(F)cccc1F (centres unmarked) [Compound 4h] :: 33.8
COc1ccc2c3c(ccc2c1)OC(N)=C(C#N)C3c1cc(OC)c(OC)c(OC)c1 (centres unmarked) [Compound 4p] :: 91.4
COc1ccc2c3c(ccc2c1)OC(N)=C(C#N)C3c1ccc(OC)c(OC)c1OC (centres unmarked) [Compound 4o] :: 35.9
COc1ccc2c3c(ccc2c1)OC(N)=C(C#N)C3c1cccc(Cl)c1 (centres unmarked) [Compound 4c] :: 5.5
COc1ccc2c3c(ccc2c1)OC(N)=C(C#N)C3c1cccc(Cl)c1Cl (centres unmarked) [Compound 4i] :: 3.5

---

Listing of entries alongside the reported zone of inhibition at 1000 µg/mL.
System: Staphylococcus aureus (ATCC 6538)
Assay: Agar diffusion antibacterial screening (inhibition zone)
Format: cell-based
Conditions: ATCC6538, S. aureus, 1 mg/mL, Mueller–Hinton agar, read-out: Diameter of inhibition zone
readout-type: zone of inhibition at 1000 µg/mL (mm)

COc1ccc2c3c(ccc2c1)OC(N)=C(C#N)C3c1ccc(F)cc1F (centres unmarked) [Compound 4g] :: 23
COc1ccc2c3c(ccc2c1)OC(N)=C(C#N)C3c1cc(Br)cc(Br)c1OC (centres unmarked) [Compound 4n] :: 0
COc1ccc2c3c(ccc2c1)OC(N)=C(C#N)C3c1c(Cl)cccc1Cl (centres unmarked) [Compound 4l] :: 0
COc1ccc2c3c(ccc2c1)OC(N)=C(C#N)C3c1cccc(Cl)c1 (centres unmarked) [Compound 4c] :: 0
COc1ccc2c3c(ccc2c1)OC(N)=C(C#N)C3c1c(F)cccc1F (centres unmarked) [Compound 4h] :: 9

---

Test system: Staphylococcus aureus (ATCC 6538)
Experiment: Agar diffusion antibacterial screening (inhibition zone)
Format: cell-based
Details: ATCC6538, S. aureus, 1 mg/mL, Mueller–Hinton agar, read-out: Diameter of inhibition zone
Listing of entries alongside the reported zone of inhibition at 1000 µg/mL.
readout-type: zone of inhibition at 1000 µg/mL (mm)

COc1ccc2c3c(ccc2c1)OC(N)=C(C#N)C3c1cc(Cl)ccc1Cl (stereo not drawn) :: 0
COc1ccc2c3c(ccc2c1)OC(N)=C(C#N)C3c1ccc(Cl)c(Cl)c1 (stereo not drawn) :: 0
COc1ccc2c3c(ccc2c1)OC(N)=C(C#N)C3c1ccccc1Cl (stereo not drawn) :: 0
O=C(O)c1cn(C2CC2)c2cc(N3CCNCC3)c(F)cc2c1=O [Ciprofloxacin, reference compound] :: 0
COc1ccc2c3c(ccc2c1)OC(N)=C(C#N)C3c1ccc(I)cc1 (stereo not drawn) :: 0
COc1ccc2c3c(ccc2c1)OC(N)=C(C#N)C3c1ccc(Br)cc1 (stereo not drawn) :: 0
COc1ccc2c3c(ccc2c1)OC(N)=C(C#N)C3c1cccc(Cl)c1Cl (stereo not drawn) :: 0
COc1ccc2c3c(ccc2c1)OC(N)=C(C#N)C3c1cc(Cl)cc(Cl)c1Cl (stereo not drawn) :: 10
COc1ccc2c3c(ccc2c1)OC(N)=C(C#N)C3c1ccc(OC)c(OC)c1OC (stereo not drawn) :: 10
